experiment: In vivo pharmacokinetics in mice; settings: male, CD1, plasma; mouse, SC 10 mg kg-1
experimental_readout: AUC(0-inf) (ng·h/mL)
Give the value, in units of ng·h/mL, as a plain number.

Q: Give its AUC(0-inf) value. Item: CN[C@H](CC(C)C)C(=O)N[C@H]1C(=O)N[C@@H](CC(N)=O)C(=O)N[C@H]2C(=O)N[C@H]3C(=O)N[C@H](C(=O)N[C@H](C(=O)O)c4cc(O)cc(O)c4-c4cc3ccc4O)[C@H](O)c3ccc(c(Cl)c3)Oc3cc2cc(c3O[C@@H]2O[C@H](CO)[C@@H](O)[C@H](O)[C@H]2O[C@H]2C[C@](C)(N)[C@H](O)[C@H](C)O2)Oc2ccc(cc2Cl)[C@H]1O
A: 11400

----------
experiment: In vivo pharmacokinetics in mice; conditions: mouse, SC 10 mg kg-1
experimental_readout: AUC0-inf/AUC0-last
Could you kindly put the unit after your number?

Q: What does the data say about its AUC0-inf/AUC0-last? Entry: CN[C@H](CC(C)C)C(=O)N[C@H]1C(=O)N[C@@H](CC(N)=O)C(=O)N[C@H]2C(=O)N[C@H]3C(=O)N[C@H](C(=O)N[C@H](C(=O)O)c4cc(O)cc(O)c4-c4cc3ccc4O)[C@H](O)c3ccc(c(Cl)c3)Oc3cc2cc(c3O[C@@H]2O[C@H](CO)[C@@H](O)[C@H](O)[C@H]2O[C@H]2C[C@](C)(N)[C@H](O)[C@H](C)O2)Oc2ccc(cc2Cl)[C@H]1O
A: 100%

----------
assay: Haemolysis assay; assay type: cell-based; settings: human, % Human Whole Blood Haemolysis
experimental_readout: hemolysis at 3 h, 1600 µg mL-1 (%)
Number only, in %; omit the unit.

Q: Please give the measured hemolysis at 3 h, 1600 µg mL-1 for this compound: CCCCCCCCCC(=O)N[C@@H](Cc1c[nH]c2ccccc12)C(=O)N[C@H](CC(N)=O)C(=O)N[C@@H](CC(=O)O)C(=O)N[C@@H]1C(=O)NCC(=O)N[C@@H](CCCN)C(=O)N[C@@H](CC(=O)O)C(=O)N[C@H](C)C(=O)N[C@@H](CC(=O)O)C(=O)NCC(=O)N[C@H](CO)C(=O)N[C@@H]([C@H](C)CC(=O)O)C(=O)N[C@@H](CC(=O)c2ccccc2N)C(=O)O[C@@H]1C
A: 1.6

----------
assay: In vivo pharmacokinetics in mice; conditions: male, CD1, plasma; mouse, IV 2 mg kg-1; read-out: MRT0-last
experimental_readout: MRT last

Q: Quick check: MRT last of CN[C@H](CC(C)C)C(=O)N[C@H]1C(=O)N[C@@H](CC(N)=O)C(=O)N[C@H]2C(=O)N[C@H]3C(=O)N[C@H](C(=O)N[C@H](C(=O)O)c4cc(O)cc(O)c4-c4cc3ccc4O)[C@H](O)c3ccc(c(Cl)c3)Oc3cc2cc(c3O[C@@H]2O[C@H](CO)[C@@H](O)[C@H](O)[C@H]2O[C@H]2C[C@](C)(N)[C@H](O)[C@H](C)O2)Oc2ccc(cc2Cl)[C@H]1O ?
A: 35.4 min

----------
assay: Haemolysis assay; assay type: cell-based; details: human; 200 µg mL-1; read-out: % Human Whole Blood Haemolysis
experimental_readout: hemolysis at 3 h, 200 µg mL-1
Answer with the number, then the unit.

Q: Consider the compound shown here: CN[C@H](CC(C)C)C(=O)N[C@H]1C(=O)N[C@@H](CC(N)=O)C(=O)N[C@H]2C(=O)N[C@H]3C(=O)N[C@H](C(=O)N[C@H](C(=O)O)c4cc(O)cc(O)c4-c4cc3ccc4O)[C@H](O)c3ccc(c(Cl)c3)Oc3cc2cc(c3O[C@@H]2O[C@H](CO)[C@@H](O)[C@H](O)[C@H]2O[C@H]2C[C@](C)(N)[C@H](O)[C@H](C)O2)Oc2ccc(cc2Cl)[C@H]1O [Compound 1, Vancomycin] What is its recorded hemolysis at 3 h, 200 µg mL-1?
A: 0.8%

src = paper PMC5750218
